Here the recorded IC50 is given for each entry.
- Assay Target: T1, mαvβ8 (Mus musculus, UniProt P43406+Q0VBD0)
- T1 construct: The full extracellular domains for all α and β integrin subunits; (GGGS)3 linker (C); acidic coiled-coil with cysteine (C); GG-Avitag (C); hexa-histidine tag (C); basic coiled-coil with cysteine (C); made in house; host or cells: Expi293 cells
- T1 sequence (P43406 31-988 limits assumed): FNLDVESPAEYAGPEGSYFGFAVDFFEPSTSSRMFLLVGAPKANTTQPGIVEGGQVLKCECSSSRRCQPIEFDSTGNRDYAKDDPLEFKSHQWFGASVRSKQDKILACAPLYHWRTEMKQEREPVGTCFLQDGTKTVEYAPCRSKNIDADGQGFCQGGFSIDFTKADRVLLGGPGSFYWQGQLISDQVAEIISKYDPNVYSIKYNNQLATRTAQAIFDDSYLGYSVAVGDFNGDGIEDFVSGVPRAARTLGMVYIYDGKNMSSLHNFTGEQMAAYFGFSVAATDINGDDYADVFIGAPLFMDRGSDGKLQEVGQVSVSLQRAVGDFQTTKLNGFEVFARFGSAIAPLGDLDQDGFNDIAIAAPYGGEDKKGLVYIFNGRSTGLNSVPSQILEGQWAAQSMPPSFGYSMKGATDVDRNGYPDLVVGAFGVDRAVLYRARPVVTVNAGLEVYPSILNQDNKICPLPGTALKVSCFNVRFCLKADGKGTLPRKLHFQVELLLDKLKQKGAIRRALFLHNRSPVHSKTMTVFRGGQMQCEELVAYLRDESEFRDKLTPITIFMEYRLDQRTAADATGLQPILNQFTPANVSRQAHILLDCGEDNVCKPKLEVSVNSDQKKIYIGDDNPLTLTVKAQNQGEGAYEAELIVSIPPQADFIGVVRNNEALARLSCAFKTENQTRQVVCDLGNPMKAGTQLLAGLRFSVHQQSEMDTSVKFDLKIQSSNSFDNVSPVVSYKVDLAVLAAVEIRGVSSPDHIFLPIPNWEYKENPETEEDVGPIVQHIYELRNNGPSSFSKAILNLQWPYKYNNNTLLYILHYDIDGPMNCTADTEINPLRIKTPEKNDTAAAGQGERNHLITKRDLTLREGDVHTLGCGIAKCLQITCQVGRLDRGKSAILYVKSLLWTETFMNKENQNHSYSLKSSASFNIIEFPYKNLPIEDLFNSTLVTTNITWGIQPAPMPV
- T1 sequence (Q0VBD0 22-681 limits assumed): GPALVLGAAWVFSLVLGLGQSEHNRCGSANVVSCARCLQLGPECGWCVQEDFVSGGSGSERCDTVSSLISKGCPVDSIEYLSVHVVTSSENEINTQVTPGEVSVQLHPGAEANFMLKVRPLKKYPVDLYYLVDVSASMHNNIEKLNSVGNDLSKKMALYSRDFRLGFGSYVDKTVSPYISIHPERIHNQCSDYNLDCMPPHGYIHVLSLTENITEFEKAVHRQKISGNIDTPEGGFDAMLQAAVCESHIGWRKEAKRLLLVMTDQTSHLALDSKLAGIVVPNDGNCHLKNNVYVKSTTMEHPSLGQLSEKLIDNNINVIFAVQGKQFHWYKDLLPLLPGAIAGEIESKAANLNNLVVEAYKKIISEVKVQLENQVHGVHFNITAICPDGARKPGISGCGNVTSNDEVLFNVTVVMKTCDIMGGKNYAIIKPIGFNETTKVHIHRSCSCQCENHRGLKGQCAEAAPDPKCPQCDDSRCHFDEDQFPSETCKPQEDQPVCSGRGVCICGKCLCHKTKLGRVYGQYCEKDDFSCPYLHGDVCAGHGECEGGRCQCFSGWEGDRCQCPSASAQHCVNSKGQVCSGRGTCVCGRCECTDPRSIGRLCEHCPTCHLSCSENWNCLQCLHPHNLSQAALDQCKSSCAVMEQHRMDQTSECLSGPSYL
- Method Notes: Mouse AlphaLISA integrin-ligand blocking assay (LAP)
- Assay type: biochemical
- Assay Setup: Table 12; read-out: IC50 Mouse integrin AlphaLISA assays mαvβ8

For orientation, consider the following solved cases.
# Molecule, IC50
measured = [
    ("Ab-33: integrin binder antibody, VH SEQ ID NO: 39, VL SEQ ID NO: 40 (antibody, V domains shown) VH: EVQLVQSGAEVKKPGSSVKVSCKASGGTFSNYAISWVRQAPGQGLEWMGGIIPIFGTANYAQKFQGRVTITADESTSTAYMELSSLRSEDTAVYYCARAPRSARGDMYYYYYGMDVWGQGTTVTVSS VL: DIQMTQSPSTLSASVGDRVTITCRASQSIGSWLAWYQQKPGKAPKLLIYKASSLESGVPSRFSGSGSGTEFTLTISSLQPDDFATYYCQQYGRYPWTFGGGTKVEIK", "24.7 nM"),
    ("Ab-29: integrin binder antibody, VH SEQ ID NO: 31, VL SEQ ID NO: 32 (antibody, V domains shown) VH: ELQLQESGPGLVKPSETLSLTCTVSGGSISSNSYYWGWIRQPPGKGLEWIGSIYYSGSTYYNPSLKSRVTISVDTSKNQFSLKLSSVTAADTAVYYCARVRRVAGRGDSYYYYYGMDVWGQGTTVTVSS VL: DIQMTQSPSSVSASVGDRVTITCRASQGISRWLAWYQQKPGKAPKLLIYAASSLQSGVPSRFSGSGSGTDFTLTISSLQPEDFATYYCQQAISHPWTFGGGTKVEIK", "102 nM"),
    ("Ab-30: integrin binder antibody, VH SEQ ID NO: 33, VL SEQ ID NO: 34 (antibody, V domains shown) VH: EVQLQESGPGLVKPSETLSLTCAVSGYSISSGYYWGWIRQPPGKGLEWIGSIYHSGNTYYNPSLKSRVTISVDTSKNQFSLKLSSVTAADTAVYYCARVPRYSRGDAYYYYGMDVWGQGTTVTVSS VL: DIQMTQSPSTLSASVGDRVTITCRASQSISSWLAWYQQKPGKAPKLLIYKASSLESGVPSRFSGSGSGTEFTLTISSLQPDDFATYYCQQVKIYPPYTFGGGTKVEIK", "25.1 nM"),
    ("mAb-24: control antibody abituzumab; 17E6, a therapeutic pan-αv integrin antibody (antibody, chains of the INN, looked up, V domains shown) VH: QVQLQQSGGELAKPGASVKVSCKASGYTFSSFWMHWVRQAPGQGLEWIGYINPRSGYTEYNEIFRDKATMTTDTSTSTAYMELSSLRSEDTAVYYCASFLGRGAMDYWGQGTTVTVSS VL: DIQMTQSPSSLSASVGDRVTITCRASQDISNYLAWYQQKPGKAPKLLIYYTSKIHSGVPSRFSGSGSGTDYTFTISSLQPEDIATYYCQQGNTFPYTFGQGTKVEIK", "> 250 nM"),
    ("Ab-32: integrin binder antibody, VH SEQ ID NO: 37, VL SEQ ID NO: 38 (antibody, V domains shown) VH: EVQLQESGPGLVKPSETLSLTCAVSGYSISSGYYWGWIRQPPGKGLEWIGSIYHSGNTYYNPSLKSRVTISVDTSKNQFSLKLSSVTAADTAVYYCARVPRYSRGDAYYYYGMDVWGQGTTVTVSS VL: EIVLTQSPGTLSLSPGERATLSCRASQSVRSSYLAWYQQKPGQAPRLLIYGASSRATGIPDRFSGSGSGTDFTLTISRLEPEDFAVYYCQQAGLVFTFGGGTKVEIK", "71.9 nM"),
]

Alright, here's another molecule for you.
Req: For the molecule shown here, Ab-31: integrin binder antibody, VH SEQ ID NO: 35, VL SEQ ID NO: 36 (antibody, V domains shown) VH: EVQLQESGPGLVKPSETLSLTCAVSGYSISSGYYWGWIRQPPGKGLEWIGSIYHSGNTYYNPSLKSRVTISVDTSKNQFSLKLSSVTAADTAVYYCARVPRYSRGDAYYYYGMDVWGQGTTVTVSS VL: DIQMTQSPSTLSASVGDRVTITCRASQSIGSWLAWYQQKPGKAPKLLIYKASSLESGVPSRFSGSGSGTEFTLTISSLQPDDFATYYCQQSGPYPWTFGGGTKVEIK , give the reported IC50.
Resp: 66.3 nM
